Value source: paper PMC9099060

Measurement record for α-glucosidase (Saccharomyces cerevisiae); quantity recorded: IC50.
Readout Kind: IC50 (µM)

>>> reported_value("O=C1c2c(O)cc(O)cc2OC(c2ccc(O)c(O)c2)C1O (centres unmarked)")
45.9
>>> reported_value("Oc1ccc(/C=C/c2cc(O)cc(O)c2)cc1")
47.9

* * *

target: human α-amylase (HPA) (Homo sapiens, UniProt P04746); assay: In vitro inhibitory activity against α-amylase; assay type: biochemical; details: α-amylase IC50 (μM)±SD, starch substrate; mean ± SD, n = 6
Sequence (P04746 16-511): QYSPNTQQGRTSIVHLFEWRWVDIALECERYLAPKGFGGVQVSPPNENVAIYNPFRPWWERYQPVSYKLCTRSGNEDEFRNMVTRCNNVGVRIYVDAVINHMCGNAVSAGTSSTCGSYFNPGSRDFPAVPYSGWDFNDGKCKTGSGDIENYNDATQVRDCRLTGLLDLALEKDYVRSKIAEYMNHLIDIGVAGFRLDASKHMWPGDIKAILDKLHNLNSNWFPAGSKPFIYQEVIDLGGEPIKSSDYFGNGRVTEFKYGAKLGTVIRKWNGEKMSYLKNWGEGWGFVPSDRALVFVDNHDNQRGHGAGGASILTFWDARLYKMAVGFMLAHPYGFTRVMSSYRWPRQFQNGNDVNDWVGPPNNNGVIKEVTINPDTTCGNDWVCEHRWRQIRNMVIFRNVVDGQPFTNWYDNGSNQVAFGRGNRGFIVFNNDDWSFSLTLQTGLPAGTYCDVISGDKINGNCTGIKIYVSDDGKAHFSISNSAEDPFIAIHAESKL
Readout Kind: IC50 (µM)
Supply the numeric figure in µM, leaving out any unit text.

Challenge: Look at this compound and give its reported IC50. O=C1c2c(O)cc(O)cc2OC(c2ccc(O)c(O)c2)C1O (stereo not shown) [Taxifolin]
Response given: 31.3

* * *

biological target: UniProt:P27487
Readout Kind: Ki (µM)

>>> reported_value("O=C1c2c(O)cc(O)cc2OC(c2ccc(O)c(O)c2)C1O (centres unmarked)")
12.3
>>> reported_value("Oc1ccc(/C=C/c2cc(O)cc(O)c2)cc1")
15

* * *

molecular target: DPP-IV (Homo sapiens)
Sequence (P27487 whole entry): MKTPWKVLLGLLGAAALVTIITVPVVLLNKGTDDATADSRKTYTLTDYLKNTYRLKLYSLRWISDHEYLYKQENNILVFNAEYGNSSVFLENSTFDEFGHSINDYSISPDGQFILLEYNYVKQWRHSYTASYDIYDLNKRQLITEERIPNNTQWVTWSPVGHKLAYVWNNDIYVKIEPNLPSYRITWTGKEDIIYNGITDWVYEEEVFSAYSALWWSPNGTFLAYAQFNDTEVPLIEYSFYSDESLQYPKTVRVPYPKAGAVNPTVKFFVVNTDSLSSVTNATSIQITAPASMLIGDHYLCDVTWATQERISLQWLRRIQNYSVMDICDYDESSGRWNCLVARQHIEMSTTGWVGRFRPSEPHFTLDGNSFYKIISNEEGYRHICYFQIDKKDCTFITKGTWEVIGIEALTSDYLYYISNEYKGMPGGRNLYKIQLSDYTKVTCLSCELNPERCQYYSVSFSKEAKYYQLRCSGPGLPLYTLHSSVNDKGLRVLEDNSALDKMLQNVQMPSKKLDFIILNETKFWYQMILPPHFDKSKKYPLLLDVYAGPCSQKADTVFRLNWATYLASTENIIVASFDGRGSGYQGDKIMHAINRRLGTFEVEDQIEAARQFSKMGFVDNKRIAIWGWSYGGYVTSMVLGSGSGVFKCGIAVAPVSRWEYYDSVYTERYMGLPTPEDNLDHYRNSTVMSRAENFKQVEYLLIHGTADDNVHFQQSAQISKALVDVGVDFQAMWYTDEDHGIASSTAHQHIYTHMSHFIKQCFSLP
pIC50: −log10 of the molar value.
Readout Kind: pIC50

>>> reported_value("O=C1c2c(O)cc(O)cc2OC(c2ccc(O)c(O)c2)C1O (centres unmarked) [Taxifolin]")
5.17
>>> reported_value("Oc1ccc(/C=C/c2cc(O)cc(O)c2)cc1 [Resveratrol]")
5.25
